method_description: Drug level in rat plasma at 30 mg/kg, ip after 4 hrs
Format: ADME, organism-based
Set-up: dose 30 mg/kg, route intraperitoneal
assay_endpoint: concentration at 4 h (ng/mL)

>>> print(df.to_string())
                            molecule_smiles  measurement
0  O=C1/C(=N/c2cccc(C(F)(F)F)c2)c2ccccc2N1c1ccccc1         1680

---

method_description: Drug level in rat brain at 30 mg/kg, ip after 2 hrs
Assay type: ADME, organism-based
Design: dose 30 mg/kg, route intraperitoneal
measurement_conditions: read-out: Drug uptake
assay_endpoint: concentration at 2 h (ng/g)

                            molecule_smiles        assay_endpoint  measurement
0  O=C1/C(=N/c2cccc(C(F)(F)F)c2)c2ccccc2N1c1ccccc1  concentration at 2 h         1060

---

method_description: Drug level in rat brain at 30 mg/kg, ip after 4 hrs
Format: ADME, organism-based
Set-up: dose 30 mg/kg, route intraperitoneal
measurement_conditions: read-out: Drug uptake
assay_endpoint: concentration at 4 h

                            molecule_smiles  measurement
0  O=C1/C(=N/c2cccc(C(F)(F)F)c2)c2ccccc2N1c1ccccc1    1210 ng/g

---

method_description: Drug level in rat plasma at 10 mg/kg, sc after 2 hrs
Format: ADME, organism-based
Parameters: dose 10 mg/kg, route subcutaneous
assay_endpoint: concentration at 2 h (µg/mL)

>>> df
                            molecule_smiles  measurement
0  O=C1/C(=N/c2cccc(C(F)(F)F)c2)c2ccccc2N1c1ccccc1         0.99

---

method_description: Drug level in rat brain at 10 mg/kg, sc after 2 hrs
Type: ADME, organism-based
Design: dose 10 mg/kg, route subcutaneous
measurement_conditions: read-out: Drug uptake
assay_endpoint: concentration at 2 h (ng/g)

>>> df
                            molecule_smiles        assay_endpoint  measurement
0  O=C1/C(=N/c2cccc(C(F)(F)F)c2)c2ccccc2N1c1ccccc1  concentration at 2 h          350

---

method_description: Drug level in rat plasma at 30 mg/kg, ip after 2 hrs
Type: ADME, organism-based
Design: dose 30 mg/kg, route intraperitoneal
assay_endpoint: concentration at 2 h (ng/mL)

>>> df
                            molecule_smiles  measurement
0  O=C1/C(=N/c2cccc(C(F)(F)F)c2)c2ccccc2N1c1ccccc1          780

---

study_target: Galanin receptor type 3 (Homo sapiens)
Sequence (O60755 whole entry): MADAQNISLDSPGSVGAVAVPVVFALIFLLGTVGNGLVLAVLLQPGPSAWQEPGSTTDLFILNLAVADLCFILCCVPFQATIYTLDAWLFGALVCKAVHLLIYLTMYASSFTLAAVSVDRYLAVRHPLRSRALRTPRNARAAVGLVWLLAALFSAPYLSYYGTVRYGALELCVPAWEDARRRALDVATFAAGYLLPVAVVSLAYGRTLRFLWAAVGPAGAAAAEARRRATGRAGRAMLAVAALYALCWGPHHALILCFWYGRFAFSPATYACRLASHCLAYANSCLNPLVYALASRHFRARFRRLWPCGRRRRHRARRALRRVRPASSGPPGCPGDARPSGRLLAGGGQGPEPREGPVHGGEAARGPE
method_description: Displacement of [125I]galanin from human GAL3
assay_endpoint: Ki (µM)

>>> print(df.to_string())
                            molecule_smiles                            study_target  assay_endpoint  measurement
0  CCC(CC)N1C(=O)/C(=N/c2ccc(C(F)(F)F)cc2)c2ccccc21  Galanin receptor type 3 (Homo sapiens)              Ki        0.052
